In this section we review reported inhibition values for a set of compounds.
Molecular target: Myeloperoxidase (Homo sapiens)
Assay: Inhibition of chlorinating activity of recombinant myeloperoxidase at 0.5 uM by taurine assay
Unit % implied. Number only.

[
  {
    "SMILES RECORD": "O=C(O)c1cc(Br)ccc1Nc1cccc(C(F)(F)F)c1",
    "inhibition [%]": 36
  },
  {
    "SMILES RECORD": "CC(=O)Nc1ccc(C(=O)O)c(Nc2cccc(C(F)(F)F)c2)c1",
    "inhibition [%]": 12
  },
  {
    "SMILES RECORD": "O=C(Nc1ccc(C(=O)O)c(Nc2cccc(C(F)(F)F)c2)c1)c1ccccc1",
    "inhibition [%]": 11
  }
]

Here is the next item to consider.
Tell me the measured inhibition of `NCCCC(=O)Nc1ccc(C(=O)O)c(Nc2cccc(C(F)(F)F)c2)c1` , please.
12
